System: MCF7
Test: Proteolysis targeting chimera activity in human MCF7 cells assessed as induction of E3 ubiquitin ligase-mediated ERalpha level after 24 hrs by in-cell Western assay relative to control
Type: cell-based
Parameters: concentration or dose not given beside the values
Collected Activity values appear next to each entry.
Output spec: scalar in %, unitless text.

O=C(NCCCCOc1ccc(C(=C2C3CC4CC(C3)CC2C4)c2ccc(O)cc2)cc1)C1CCC(F)(F)CC1 = 67
O=C(NCCCCOc1ccc(C(=C2C3CC4CC(C3)CC2C4)c2ccc(O)cc2)cc1)[C@@H]1C[C@@H]2C=C[C@H]1C2 = 53
O=C(NCCCCOc1ccc(C(=C2C3CC4CC(C3)CC2C4)c2ccc(O)cc2)cc1)C1CCC1 = 69
O=C(NCCOc1ccc(C(=C2C3CC4CC(C3)CC2C4)c2ccc(O)cc2)cc1)C12CC3CC(CC(C3)C1)C2 = 76
CC(C)(C)OC(=O)N[C@@H](Cc1c[nH]c2ccccc12)C(=O)NCCCCOc1ccc(C(=C2C3CC4CC(C3)CC2C4)c2ccc(O)cc2)cc1 = 45
O=C(NCCCCOc1ccc(C(=C2C3CC4CC(C3)CC2C4)c2ccc(O)cc2)cc1)C1CCCCCC1 = 76

We next turn to a different compound, shown below.
Task: Fill in Activity for `CC(C)C[C@H](NC(=O)OC(C)(C)C)C(=O)NCCCCOc1ccc(C(=C2C3CC4CC(C3)CC2C4)c2ccc(O)cc2)cc1` tested with MCF7.
Result: 56
